# Test system: RIVA
# test_summary: growth inhibition by drug plus 177Lu-lilotomab satetraxetan (1 - RLU/untreated control) (fraction); higher = stronger inhibition
# test_conditions: 100 nM; time (day): 6; 177Lu-lilotomab satetraxetan 0.5 ug/ml
Each entry below lists one item and its recorded growth inhibition by drug plus 177Lu-lilotomab satetraxetan value.
measured_metric: growth inhibition by drug plus 177Lu-lilotomab satetraxetan

{"compound": "CCOc1ccc(Nc2nc(-c3c(C)nc4ccccn34)cs2)cc1", "experimental_result": 0.973}
{"compound": "O=C(O[C@@H]1Cc2c(O)cc(O)cc2O[C@@H]1c1cc(O)c(O)c(O)c1)c1cc(O)c(O)c(O)c1 [(-)-Epigallocatechin gallate]", "experimental_result": 0.474}
{"compound": "Nc1nc(Cl)nc2c1ncn2[C@@H]1O[C@H](CO)[C@@H](O)[C@@H]1F", "experimental_result": 0.959}
{"compound": "CS(=O)(=O)c1cccc(CNc2nc(Nc3ccc4c(c3)CCC(=O)N4)ncc2C(F)(F)F)c1", "experimental_result": 0.383}
{"compound": "COc1ccc(/C=C\\c2cc(OC)c(OC)c(OC)c2)cc1O", "experimental_result": 0.971}

* * *

# Test system: U-2932
# test_summary: growth inhibition by drug plus 177Lu-lilotomab satetraxetan (1 - RLU/untreated control) (fraction); higher = stronger inhibition
# test_conditions: 10 nM; time (day): 3; 177Lu-lilotomab satetraxetan 1 ug/ml
Counter-ions that a name gives are not always drawn.
measured_metric: growth inhibition by drug plus 177Lu-lilotomab satetraxetan

{"molecule": "CC1(C)CNc2cc(NC(=O)c3cccnc3NCc3ccncc3)ccc21 [Motesanib Diphosphate]", "experimental_result": -0.0309}
{"molecule": "COC(=O)C1=C(C)NC(C)=C(C(=O)OCCCN2CCC(c3ccccc3)(c3ccccc3)CC2)[C@H]1c1cccc([N+](=O)[O-])c1 [S-(+)-Niguldipine hydrochloride]", "experimental_result": -0.0121}
{"molecule": "O=C(O)C(=O)O.[NH-]C1CCCCC1[NH-].[Pt+2] (stereo unspecified) [Oxaliplatin (Eloxatin)]", "experimental_result": 0.123}
{"molecule": "Cc1ccc(Nc2nccc(N(C)c3ccc4c(C)n(C)nc4c3)n2)cc1S(N)(=O)=O [Pazopanib]", "experimental_result": 0.0594}
{"molecule": "NC(=O)c1ccc(-c2nc(-c3ccccn3)c(-c3ccc4c(c3)OCO4)[nH]2)cc1", "experimental_result": 0.0841}
{"molecule": "COC1=CC(c2cc3ccccc3[nH]2)=N/C1=C\\c1[nH]c(C)cc1C [Obatoclax mesylate (GX15-070)]", "experimental_result": 0.00229}
{"molecule": "O=C(O)c1ccc2c(c1)nc(Nc1cccc(Cl)c1)c1ccncc12 [cx-4945 (Silmitasertib)]", "experimental_result": 0.0376}
{"molecule": "CN1CCN(c2ccc3nc(-c4c(N)c5c(F)cccc5[nH]c4=O)[nH]c3c2)CC1 [Dovitinib (TKI-258)]", "experimental_result": 0.0639}
{"molecule": "O=C(O)CC[C@H]1CC[C@@](c2cc(F)ccc2F)(S(=O)(=O)c2ccc(Cl)cc2)CC1", "experimental_result": 0.00844}
{"molecule": "CNC(=O)c1ccc(C)c(-n2c(C)cc(OCc3ccc(F)cc3F)c(Br)c2=O)c1", "experimental_result": -0.0515}
{"molecule": "C=CC(=O)N1CCC[C@@H](n2nc(-c3ccc(Oc4ccccc4)cc3)c3c(N)ncnc32)C1", "experimental_result": 0.46}
{"molecule": "C#CCN(C)CC1=Cc2ccccc2Oc2ccccc21", "experimental_result": 0.0301}
{"molecule": "CC(C)C[C@H](NC(=O)CNC(=O)c1cc(Cl)ccc1Cl)B(O)O", "experimental_result": -0.0412}
{"molecule": "CCC(=O)N1CCN(c2ccc(-n3c(=O)ccc4cnc5ccc(-c6cnc7ccccc7c6)cc5c43)cc2C(F)(F)F)CC1 [Torin 1]", "experimental_result": 0.168}
{"molecule": "C[C@@H]1C[C@H]2[C@@H]3CCC4=CC(=O)C=C[C@]4(C)[C@@]3(F)[C@@H](O)C[C@]2(C)[C@@]1(O)C(=O)CO [Dexamethasone]", "experimental_result": 0.277}
{"molecule": "COc1cc2ncnc(Nc3cccc(Br)c3)c2cc1OC", "experimental_result": -0.0269}
{"molecule": "CCOC(=O)[C@@H](C)Oc1cccc2c(=O)n(CC(=O)Nc3ccc4c(c3)OCCO4)ccc12", "experimental_result": -0.0102}
{"molecule": "C[C@]1(O)C[C@@H](c2nc(-c3ccc4ccc(-c5ccccc5)nc4c3)c3c(N)nccn32)C1 [Linsitinib (OSI-906)]", "experimental_result": -0.0826}
{"molecule": "CC(C)n1nc(-c2ccc3oc(N)nc3c2)c2c(N)ncnc21", "experimental_result": 0.352}
{"molecule": "CCN(CC)C(=S)SSC(=S)N(CC)CC [Disulfiram (Antabuse)]", "experimental_result": 0.000112}
{"molecule": "Nc1nc(N)c(N=O)c(OCC2CCCCC2)n1", "experimental_result": -0.0542}

* * *

# System: RIVA
# test_summary: growth inhibition by drug alone (1 - RLU/untreated control) (fraction); higher = stronger inhibition
# test_conditions: 100 nM; time (day): 3; 177Lu-lilotomab satetraxetan 0 ug/ml
Counter-ions that a name gives are not always drawn.
growth inhibition by drug alone vs -0.03: at or above is True, below is False.

{"compound": "Cc1c(C(=O)Nc2ccc(N3C[C@@H](C)O[C@@H](C)C3)nc2)cccc1-c1ccc(OC(F)(F)F)cc1", "assigned_category": "False"}
{"compound": "COC(=O)Nc1ccc(-c2nc(N3CCOCC3)c3cnn(C4CCN(C(=O)OC)CC4)c3n2)cc1", "assigned_category": "True"}
{"compound": "COc1cc2ncnc(Nc3ccc(F)c(Cl)c3)c2cc1NC(=O)/C=C/CN1CCCCC1", "assigned_category": "False"}
{"compound": "CNC(=O)c1cc(Oc2ccc(NC(=O)Nc3ccc(Cl)c(C(F)(F)F)c3)c(F)c2)ccn1", "assigned_category": "True"}
{"compound": "CCN[C@H]1C[C@H](C)S(=O)(=O)c2sc(S(N)(=O)=O)cc21 [Dorzolamide HCL]", "assigned_category": "False"}

* * *

# Tested on: U-2932
# test_summary: growth inhibition by drug alone (1 - RLU/untreated control) (fraction); higher = stronger inhibition
# test_conditions: 1000 nM; time (day): 6; 177Lu-lilotomab satetraxetan 0 ug/ml
Where a name gives a salt, the structure may show the parent alone.
Assign class by growth inhibition by drug alone: not lower than 0.4 means MET; lower than 0.4 means NOT MET.

{"compound": "Cc1nc(Nc2ncc(C(=O)Nc3c(C)cccc3Cl)s2)cc(N2CCN(CCO)CC2)n1", "assigned_category": "MET"}
{"compound": "CN(C)CCCCSC(=N)N", "assigned_category": "NOT MET"}
{"compound": "COC(=O)C1=C(C)NC(C)=C(C(=O)OCCCN2CCC(c3ccccc3)(c3ccccc3)CC2)[C@H]1c1cccc([N+](=O)[O-])c1 [S-(+)-Niguldipine hydrochloride]", "assigned_category": "NOT MET"}
{"compound": "C[C@@H]1C[C@H]2[C@@H]3CCC4=CC(=O)C=C[C@]4(C)[C@@]3(F)[C@@H](O)C[C@]2(C)[C@@]1(O)C(=O)CO [Dexamethasone]", "assigned_category": "NOT MET"}
{"compound": "O=C(NC1CCNCC1)c1n[nH]cc1NC(=O)c1c(Cl)cccc1Cl", "assigned_category": "MET"}
{"compound": "Nc1nc(Cl)nc2c1ncn2[C@@H]1O[C@H](CO)[C@@H](O)[C@@H]1F [Clofarabine]", "assigned_category": "MET"}
{"compound": "COc1nc(-c2ccc3c(c2)OCO3)n(-c2ccc(NC(=O)CSc3ccccc3)cc2)n1 [SecinH3]", "assigned_category": "NOT MET"}
{"compound": "S=C(NCc1ccc2c(c1)OCO2)N1CCN(c2ncnc3c2oc2ccccc23)CC1 [Amuvatinib (MP-470)]", "assigned_category": "MET"}
{"compound": "C=CC[C@@H]1/C=C(\\C)C[C@H](C)C[C@H](OC)[C@H]2O[C@@](O)(C(=O)C(=O)N3CCCC[C@H]3C(=O)O[C@H](/C(C)=C/[C@@H]3CC[C@@H](O)[C@H](OC)C3)[C@H](C)[C@@H](O)CC1=O)[C@H](C)C[C@@H]2OC [FK-506 (Tacrolimus)]", "assigned_category": "MET"}

* * *

# System: U-2932
# test_summary: growth inhibition by drug plus 177Lu-lilotomab satetraxetan (1 - RLU/untreated control) (fraction); higher = stronger inhibition
# test_conditions: 1000 nM; time (day): 6; 177Lu-lilotomab satetraxetan 1 ug/ml
Structures can show the parent of a compound that is named as a salt.
Class met: growth inhibition by drug plus 177Lu-lilotomab satetraxetan at least 0.08. Class not met: growth inhibition by drug plus 177Lu-lilotomab satetraxetan below 0.08.

{"compound": "O=C1NC(=O)/C(=C\\c2cccc(C(F)(F)F)c2)S1", "measurement_target": "U-2932", "assigned_category": "met"}
{"compound": "C=CCc1cccc(/C=N/NC(=O)CN2CCN(Cc3ccccc3)CC2)c1O", "measurement_target": "U-2932", "assigned_category": "met"}
{"compound": "Nc1ccn([C@@H]2O[C@H](CO)[C@@H](O)[C@@H]2O)c(=O)n1", "measurement_target": "U-2932", "assigned_category": "met"}
{"compound": "COC(=O)c1ccc2c(C(=Nc3ccc(N(C)C(=O)CN4CCN(C)CC4)cc3)c3ccccc3)c(O)[nH]c2c1", "measurement_target": "U-2932", "assigned_category": "not met"}
{"compound": "CN(N=O)C(=O)N[C@@H](C=O)[C@@H](O)[C@H](O)[C@H](O)CO [Streptozotocin (Zanosar)]", "measurement_target": "U-2932", "assigned_category": "not met"}
{"compound": "CC(=O)[C@]1(O)Cc2c(O)c3c(c(O)c2[C@@H](O[C@H]2C[C@H](N)[C@H](O)[C@H](C)O2)C1)C(=O)c1ccccc1C3=O [Idarubicin HCl]", "measurement_target": "U-2932", "assigned_category": "met"}
{"compound": "CC(C)C[C@H](NC(=O)[C@@H](O)[C@H](N)Cc1ccccc1)C(=O)O", "measurement_target": "U-2932", "assigned_category": "not met"}
{"compound": "CC(C)(C#N)c1cc(Cn2cncn2)cc(C(C)(C)C#N)c1", "measurement_target": "U-2932", "assigned_category": "not met"}
{"compound": "CC(C)c1ccc(Cn2ccc3c4c(N)nc(NC5CC5)nc4ccc32)cc1", "measurement_target": "U-2932", "assigned_category": "met"}
{"compound": "CO[C@H]1C[C@@H]2CC[C@@H](C)[C@@](O)(O2)C(=O)C(=O)N2CCCC[C@H]2C(=O)O[C@H]([C@H](C)C[C@@H]2CC[C@@H](OC(=O)C(C)(CO)CO)[C@H](OC)C2)CC(=O)[C@H](C)/C=C(\\C)[C@@H](O)[C@@H](OC)C(=O)[C@H](C)C[C@H](C)/C=C/C=C/C=C/1C", "measurement_target": "U-2932", "assigned_category": "met"}
{"compound": "O=c1cc(N2CCOCC2)oc2c(-c3ccccc3)cccc12", "measurement_target": "U-2932", "assigned_category": "not met"}
